test: UV absorption properties (λmax, molar extinction coefficient ε, efficiency E 1%, 1 cm); format: physicochemical; details: Table 13B; values in order of the λmax values
Grouping by measured E (1%, 1 cm) is done with the following cut points: low: < 600; medium: ≥ 600 and < 900; high: ≥ 900

Reference set, count: 5
{"compound": "CC1(C)CCN(C(C)(C)C)C=C1C(=O)/C=C/c1ccc(/C=C/C(=O)C2=CN(C(C)(C)C)CCC2(C)C)cc1", "assigned-label": "medium"}
{"compound": "CCCCC(CC)COC(=O)CCC(=O)C1=CN(c2ccc(N3C=C(C(=O)CCC(=O)OCC(CC)CCCC)C(C)(C)CC3)cc2)CCC1(C)C (stereo not drawn)", "assigned-label": "medium"}
{"compound": "Cc1cc(-c2ccc(N3C=C(C(=O)C(F)(F)F)C(C)(C)CC3)c(C)c2)ccc1N1C=C(C(=O)C(F)(F)F)C(C)(C)CC1", "assigned-label": "high"}
{"compound": "CC1(C)CCN(C(C)(C)C)C=C1C(=O)c1ccc(C(F)(F)F)cc1", "assigned-label": "medium"}
{"compound": "Cc1ccc(NC(=O)C2=CN(C(C)(C)CC(C)(C)C)CCC2(C)C)cc1NC(=O)C1=CN(C(C)(C)CC(C)(C)C)CCC1(C)C", "assigned-label": "high"}

QUERY: Assign a bin to CC1(C)CCN(C(C)(C)C)C=C1C(=O)c1ccc(N2CCN(c3ccc(C(=O)C4=CN(C(C)(C)C)CCC4(C)C)cc3)CC2)cc1
RESULT: medium

QUERY: Assign a bin to Cc1cc(-c2ccc(N3C=C(C(=O)C(F)(F)F)C(C)(C)CC3)c(C)c2)ccc1N1C=CC(C)(C)C(C(=O)C(F)(F)F)=C1
RESULT: medium

QUERY: Assign a bin to CC1(C)CCN(C(C)(C)C)C=C1C(=O)/C=C/c1cccc(/C=C/C(=O)C2=CN(C(C)(C)C)CCC2(C)C)c1
RESULT: low

###

test: UV absorption properties (λmax, molar extinction coefficient ε, efficiency E 1%, 1 cm); type: physicochemical; settings: Table 13B, miscellaneous compounds
value-kind: λmax (nm)
Quick reminder: number only, in nm, skip the unit.

A selection of reference data follows.
{"molecule": "CC1(C)CCN(c2ccc(C(C)(C)C)cc2)C=C1C(=O)N(Cc1ccc(CN(C(=O)C2=CN(c3ccc(C(C)(C)C)cc3)CCC2(C)C)c2ccccc2)cc1)c1ccccc1", "value-units": "nm", "λmax": 326}
{"molecule": "Cc1cc(/C=C/C(=O)C2=CN(C(C)(C)C)CCC2(C)C)c(C)cc1/C=C/C(=O)C1=CN(C(C)(C)C)CCC1(C)C", "value-units": "nm", "λmax": 385}
{"molecule": "CC(C)CN1C=C(C(=O)C(C)(C)C)C(C)(C)CC1", "value-units": "nm", "λmax": 309}
{"molecule": "CCC(=O)C1=CN(c2ccc(-c3ccc(N4C=C(C(=O)CC)C(C)(C)CC4)c(C)c3)cc2C)CCC1(C)C", "value-units": "nm", "λmax": 328}
{"molecule": "CC(C)=CCCC(C)CC(=O)C1=CN(c2ccc(N3C=C(C(=O)CC(C)CCC=C(C)C)C(C)(C)CC3)cc2)CCC1(C)C (stereo not shown) [drawing 213]", "value-units": "nm", "λmax": 358}

QUERY: What value of λmax has been recorded for this entry: CC1(C)CCN(C(C)(C)C)C=C1C(=O)/C=C/c1cccc(/C=C/C(=O)C2=CN(C(C)(C)C)CCC2(C)C)c1
RESULT: 360

QUERY: What value of λmax has been recorded for this entry: Cc1cc(-c2ccc(N3C=C(C(=O)C(F)(F)F)C(C)(C)CC3)c(C)c2)ccc1N1C=C(C(=O)C(F)(F)F)C(C)(C)CC1
RESULT: 331

QUERY: What value of λmax has been recorded for this entry: CC(C)(C)CC(C)(C)N1C=C(C(=O)/C=C/c2ccc(/C=C/C(=O)C3=CN(C(C)(C)CC(C)(C)C)CCC3(C)C)cc2)C(C)(C)CC1
RESULT: 386

###

The entries below come with measured λcrit values attached.
test: Critical wavelength (λcrit), approximate in-house measurement; type: physicochemical; details: Table 13B
Quick note: number first, unit second.

{"molecule": "CC1(C)CCN(C(C)(C)C)C=C1C(=O)c1ccccn1", "val": "360 nm"}

QUERY: What value of λcrit has been recorded for this entry: Cc1cc(-c2ccc(N3C=C(C(=O)C(F)(F)F)C(C)(C)CC3)c(C)c2)ccc1N1C=C(C(=O)C(F)(F)F)C(C)(C)CC1
RESULT: 354 nm

###

assay: UV absorption properties (λmax, molar extinction coefficient ε, efficiency E 1%, 1 cm); assay type: physicochemical; settings: Table 8b; in M-1 cm-1
value-kind: ε

A selection of reference data follows.
{"molecule": "CCC(=O)C1=CN(c2cccc3ccccc23)CCC1(C)C [drawing 137]", "ε": 23247}
{"molecule": "CCCCCCCC(=O)C1=CN(c2ccc(N(C)C)cc2)CCC1(C)C [drawing 134]", "ε": 28040}
{"molecule": "CCC(=O)C1=CN(c2ccc(C(C)(C)C)cc2)CCC1(C)C [drawing 136]", "ε": 31955}

QUERY: What value of ε has been recorded for this entry: COc1ccc(N2C=C(C(=O)COc3ccccc3)C(C)(C)CC2)cc1 [drawing 132]
RESULT: 26633

QUERY: What value of ε has been recorded for this entry: CCC(=O)C1=CN(c2ccc(C)cc2)CCC1(C)C [drawing 135]
RESULT: 34608

###

Test: Critical wavelength (λcrit), approximate in-house measurement
Type: physicochemical
Settings: Table 8b
Source text: As the precise test for critical wavelength was unable to be replicated exactly by the inventors due to the need for specialist equipment and a specific calibration of the spectrophotometer, these values are only approximate to a degree. […] This represents a highly useful result and so, compounds based around this benzoyl substitution pattern shown, are especially preferred.
value-kind: λcrit (nm)
Quick reminder: number only, in nm, skip the unit.

A selection of reference data follows.
{"compound": "COc1ccc(N2C=C(C(=O)Cc3ccccc3)C(C)(C)CC2)cc1 [drawing 133]", "value-units": "nm", "λcrit": 350}
{"compound": "CCC(=O)C1=CN(c2cccc3ccccc23)CCC1(C)C [drawing 137]", "value-units": "nm", "λcrit": 346}
{"compound": "COc1ccc(N2C=C(C(=O)C3CCCC3=O)C(C)(C)CC2)cc1 (centres unmarked) [drawing 130]", "value-units": "nm", "λcrit": 358}

QUERY: What value of λcrit has been recorded for this entry: CCCCCCCC(=O)C1=CN(c2ccc(N(C)C)cc2)CCC1(C)C [drawing 134]
RESULT: 371

QUERY: What value of λcrit has been recorded for this entry: Cc1ccc(N2C=C(C(=O)CCCCCCCCC(=O)C3=CN(c4ccc(C)cc4)CCC3(C)C)C(C)(C)CC2)cc1 [drawing 131]
RESULT: 349

QUERY: What value of λcrit has been recorded for this entry: COc1ccc(N2C=C(C(=O)COc3ccccc3)C(C)(C)CC2)cc1 [drawing 132]
RESULT: 362

QUERY: What value of λcrit has been recorded for this entry: CCC(=O)C1=CN(c2ccc(C(C)(C)C)cc2)CCC1(C)C [drawing 136]
RESULT: 348

QUERY: What value of λcrit has been recorded for this entry: CCC(=O)C1=CN(c2ccc(C)cc2)CCC1(C)C [drawing 135]
RESULT: 348

###

assay: UV absorption properties (λmax, molar extinction coefficient ε, efficiency E 1%, 1 cm); assay type: physicochemical; details: Table 13A, miscellaneous compounds
condition met means recorded λmax is 300 nm or above; condition not met means it is below 300 nm.

Reference set, count: 2
{"compound": "CCC(=O)C1=CN(CC(C)C)C=CC1(C)C [drawing 170]", "assigned-label": "condition met"}
{"compound": "CC(C)CN1C=C(S(=O)(=O)c2ccccc2)C(C)(C)CC1 [drawing 173]", "assigned-label": "condition not met"}

Here's the next entry for you.
QUERY: Check the entry CC(C)CN1C=C(C(=O)C(c2ccccc2)c2ccccc2)C(C)(C)CC1 [drawing 172] : does λmax equal or exceed 300 nm?
RESULT: condition met

###

assay: UV absorption properties (λmax, molar extinction coefficient ε, efficiency E 1%, 1 cm); format: physicochemical; conditions: Table 9; in M-1 cm-1
value-kind: ε
API doc: respond with a numeric literal and nothing else, no unit.

{"compound": "CC1(C)CCN(c2cccc3ccccc23)C=C1C(=O)C(F)(F)F [drawing 143]", "ε": 32790}
{"compound": "Cc1ccc(N2C=C(C(=O)C(F)(F)F)C(C)(C)CC2)cc1 [drawing 142]", "ε": 43513}
{"compound": "CN(C)c1ccc(N2C=C(C(=O)C(F)(F)F)C(C)(C)CC2)cc1 [drawing 141]", "ε": 32744}
{"compound": "COc1ccc(N2C=C(C(=O)C(F)(F)F)C(C)(C)CC2)cc1 [drawing 140]", "ε": 24235}

QUERY: What value of ε has been recorded for this entry: CC1(C)CCN(c2ccc(C(C)(C)C)cc2)C=C1C(=O)C(F)(F)F [drawing 139]
RESULT: 42723

Cited source for all entries: patent US10519111B2
